Where do these numbers come from? They come from PubChem BioAssay AID1159580.

- Assay Summary: chemical genetic growth profiling, strain panel (AID 1159580);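 also: tested at 20 µM; growth read once vehicle control cultures reached saturation at 30 °C; 1 = growth at the plate median or of vehicle wells; lower values mean less growth of the strain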
- Test Parameters: S. cerevisiae deletion strains, growth OD, locus YHR200W, strain rpn10, active compounds read low
The whole screen tested about 5,500 compounds, of which about 2,000 (36%) were called active. Another 18% or so got no clear call; they are omitted. This is one part of the list.

- Compound: "COc1ccc2oc(-c3ccccc3)c(OC)c(=O)c2c1"
  normalized growth: 0.897
- Compound: "CN(C)C(=O)Oc1ccc[n+](C)c1"
  normalized growth: 1.02
- Compound: "CC(=O)Oc1ccc2c(c1)CCC1C2CC[C@]2(C)C(=O)CCC12 (stereo partly specified)"
  normalized growth: 1.02
- Compound: "CC(=O)C1CCC2C3CCC4C[C@H](O)CCC4(C)C3C[C@H](O)C12C (stereo partly specified)"
  normalized growth: 1.01
- Compound: "O=c1[nH]c(=O)n(C2C[C@H](O)[C@@H](CO)O2)cc1C(F)(F)F (stereo partly specified)"
  normalized growth: 0.985
- Compound: "C[C@]12CCC3c4ccc(OC(=O)c5ccccc5)cc4CCC3C1CCC2=O (stereo partly specified)"
  normalized growth: 0.994

###

- Assay Summary: chemical genetic growth profiling, strain panel (AID 1159580);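 also: tested at 20 µM; growth read once vehicle control cultures reached saturation at 30 °C; 1 = growth at the plate median or of vehicle wells; lower values mean less growth of the strain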
- Test Parameters: S. cerevisiae deletion strains, growth OD, locus YGL227W, strain vid30, active compounds read low
Among all 5,500 compounds or so, about 2,000 (36%) were called active. Roughly 18% stayed inconclusive and do not appear here. This is one part of the list.
Parameter: normalized growth

- Molecule: "C1N2CN3CN1CN(C2)C3"
  Reported Result: "1 (inactive)"
- Molecule: "NC(=O)NC1NC(=O)NC1=O (configuration not stated)"
  Reported Result: "1 (inactive)"
- Molecule: "CC(C)c1nc(N(C)S(C)(=O)=O)nc(-c2ccc(F)cc2)c1/C=C/[C@@H](O)C[C@@H](O)CC(=O)O"
  Reported Result: "1.02 (inactive)"
- Molecule: "Cc1cccc(C)c1NC(=O)C1CCCCN1C (configuration not stated)"
  Reported Result: "0.98 (inactive)"
- Molecule: "NCCCNCCSP(=O)(O)O"
  Reported Result: "0.974 (inactive)"
- Molecule: "O=C(O)CCC1NCC2CC1CN1CCCCC21 (configuration not stated)"
  Reported Result: "0.986 (inactive)"
- Molecule: "CN(C)C(=O)Oc1ccc[n+](C)c1"
  Reported Result: "1.01 (inactive)"
- Molecule: "COC(=O)/C(C)=C\\CC12OC(C)(C)C3CC(C=C4C(=O)c5c(OC)c6c(c(CC=C(C)C)c5OC431)OC(C)(CCC=C(C)C)C=C6)C2=O (configuration not stated)"
  Reported Result: "1.02 (inactive)"
- Molecule: "Cc1cc(CC(=O)O)n(C)c1C(=O)c1ccc(Cl)cc1"
  Reported Result: "1.02 (inactive)"
- Molecule: "FC(F)(F)c1cccc(N2CCNCC2)c1"
  Reported Result: "1 (inactive)"
- Molecule: "Cc1ccc(C(=O)c2ccc(CC(=O)O)n2C)cc1"
  Reported Result: "1 (inactive)"
- Molecule: "O=c1cccc2n1CC1CC2CN2CCCC[C@@H]12 (some centres not stated)"
  Reported Result: "0.974 (inactive)"

###

- Assay Summary: chemical genetic growth profiling, strain panel (AID 1159580);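 also: tested at 20 µM; growth read once vehicle control cultures reached saturation at 30 °C; 1 = growth at the plate median or of vehicle wells; lower values mean less growth of the strain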
- Test Parameters: S. cerevisiae deletion strains, growth OD, locus YKR026C, strain gcn3
In all, about 5,500 compounds went through this assay and about 2,000 (36%) were called active. Roughly 18% stayed inconclusive and do not appear here. Rule as the data show it: active = normalized growth mostly below about 0.91 (no sharp cut-off); inconclusive = no clear call, values can overlap the other calls; inactive = mostly above about 0.92. This is one part of the list.
Possible outcomes: TRUE = active, FALSE = inactive

- Compound: "CC(=O)O[C@H]1CC[C@@]2(C)C(C[C@@H](OC(C)=O)[C@]3(C)C2CC[C@@]2(C)[C@H](c4ccoc4)OC(=O)[C@H]4O[C@]423)C1(C)C (some centres not stated)"
  Class Name: "FALSE"
- Compound: "CN1CCC[C@@H]1CCO[C@](C)(c1ccccc1)c1ccc(Cl)cc1"
  Class Name: "FALSE"
- Compound: "O=c1cccc2n1CC1CC2CN2CCCC[C@@H]12 (some centres not stated)"
  Class Name: "FALSE"
- Compound: "COC(=O)[C@@H]1OC(=O)C2OC23[C@@]1(C)CCC1[C@]2(C)C(C[C@@H](O)[C@]13C)C(C)(C)[C@H](OC(C)=O)C[C@@H]2OC(C)=O (some centres not stated)"
  Class Name: "FALSE"
- Compound: "Clc1ccc(COC(Cn2ccnc2)c2ccc(Cl)cc2Cl)c(Cl)c1 (configuration not stated)"
  Class Name: "TRUE"
- Compound: "CC1(C)C(=O)[C@@H]2O[C@@H]2[C@@]2(C)C1C[C@@H](O)[C@]1(C)C2CC[C@@]2(C)[C@H](c3ccoc3)OC(=O)C3OC321 (some centres not stated)"
  Class Name: "FALSE"
- Compound: "CN(C)CCC(c1ccccc1)c1ccccn1 (configuration not stated)"
  Class Name: "FALSE"
- Compound: "C=C[C@@]1(C)CC(=O)[C@@]2(O)[C@](C)(O1)[C@@H](OC(C)=O)[C@@H](O)C1C(C)(C)CC[C@H](O)[C@@]12C (some centres not stated)"
  Class Name: "FALSE"
- Compound: "C=C1C(=O)[C@]23[C@H](O)[C@H]1CC[C@H]2[C@@]12CO[C@]3(O)[C@H](O)[C@@H]1C(C)(C)CC[C@@H]2O"
  Class Name: "FALSE"
- Compound: "Cc1onc(-c2ccccc2)c1-c1ccc(S(N)(=O)=O)cc1"
  Class Name: "FALSE"
- Compound: "Clc1ccc(COC(Cn2ccnc2)c2ccc(Cl)cc2Cl)cc1 (configuration not stated)"
  Class Name: "TRUE"
- Compound: "CC(=O)O[C@@H]1CC2C(C)(C)[C@H](O)C=C[C@]2(C)C2CC[C@@]3(C)[C@H](c4ccoc4)OC(=O)C4OC43[C@@]21C (some centres not stated)"
  Class Name: "FALSE"
- Compound: "CCCCCCCCCCCCCC(=O)OC1C(C)C2(O)C(C=C(CO)CC3(O)C(=O)C(C)=CC32)C2C(C)(C)C12OC(C)=O (configuration not stated)"
  Class Name: "FALSE"
- Compound: "Cc1cc(CC(=O)O)n(C)c1C(=O)c1ccc(Cl)cc1"
  Class Name: "FALSE"
- Compound: "CC(=O)O[C@H]1C[C@@H](OC(C)=O)C(C)(C)C2C[C@@H](OC(C)=O)[C@]3(C)C(CC[C@@]4(C)[C@H](c5ccoc5)OC(=O)[C@H]5O[C@]543)[C@]21C (some centres not stated)"
  Class Name: "FALSE"
- Compound: "Cc1nnc(NS(=O)(=O)c2ccc(N)cc2)s1"
  Class Name: "FALSE"
- Compound: "C=NC(C(=O)NC1C(=O)N2C1SC(C)(C)C2C(=O)O)c1ccccc1 (configuration not stated)"
  Class Name: "FALSE"

###

- Assay Summary: chemical genetic growth profiling, strain panel (AID 1159580);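 also: tested at 20 µM; growth read once vehicle control cultures reached saturation at 30 °C; 1 = growth at the plate median or of vehicle wells; lower values mean less growth of the strain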
- Test Parameters: S. cerevisiae deletion strains, growth OD, locus YJL128C, strain PBS2, active compounds read low
Hit rate of the full screen: of about 5,500 compounds, about 2,000 (36%) were called active. About 18% were inconclusive and are not listed. The list shows a part of the results.

- Molecule: "O=S(=O)(NCc1ccc(C(F)(F)F)cc1)c1cc(Br)c(Br)s1"
  normalized growth: 0.924
- Molecule: "FC(F)(F)c1cc(NC(=S)SCCSC(=S)Nc2cc(C(F)(F)F)cc(C(F)(F)F)c2)cc(C(F)(F)F)c1"
  normalized growth: 0.954
- Molecule: "O=S(=O)(Nc1cc(Cl)c(Cl)cc1Cl)c1cc(C(F)(F)F)cc(C(F)(F)F)c1"
  normalized growth: 0.969
- Molecule: "C[C@@H](Nc1ncnc2sc3c(c12)CCCC3)c1ccccc1"
  normalized growth: 0.889
- Molecule: "Cc1ccc(NC(=S)C(C#N)C(=O)N2CCOCC2)c(C)c1 (centres undefined)"
  normalized growth: 0.937
- Molecule: "CC1=CC(=O)N(c2ccc(OC(F)(F)F)cc2)C1=O"
  normalized growth: 0.9
- Molecule: "Cc1c(S(=O)(=O)Nc2cccc([N+](=O)[O-])c2)sc2ccc(Cl)cc12"
  normalized growth: 0.963
- Molecule: "COc1ccc(-c2csc(-c3cccnc3)n2)cc1"
  normalized growth: 0.966
- Molecule: "CC(C)(C)C1=C(C#N)C(c2c(Cl)cccc2Cl)C(C#N)=C(N)O1 (centres undefined)"
  normalized growth: 0.925
- Molecule: "Clc1ccccc1-c1csc(-c2ccncc2)n1"
  normalized growth: 0.933
- Molecule: "Nc1ccccc1C(=O)Nc1cc(C(F)(F)F)cc(C(F)(F)F)c1"
  normalized growth: 0.914
- Molecule: "COc1ccc(-c2cn3cc(C)ccc3n2)cc1"
  normalized growth: 0.943
- Molecule: "O=S(=O)(NCc1ccc(C(F)(F)F)cc1)c1cccc(C(F)(F)F)c1"
  normalized growth: 0.917
- Molecule: "O=[N+]([O-])c1ccsc1Oc1cccc(C(F)(F)F)c1"
  normalized growth: 0.939
- Molecule: "COc1ccc(Nc2nc(NC(=O)Nc3ccc(Cl)cc3)n[nH]2)cc1"
  normalized growth: 0.957
- Molecule: "Brc1ccc(-c2csc(-c3cccnc3)n2)cc1"
  normalized growth: 0.951
- Molecule: "Clc1cccc(Nc2ncc(-c3ccc4c(c3)OCCCO4)s2)c1"
  normalized growth: 0.951
- Molecule: "O=C(Nc1cc(C(F)(F)F)cc(C(F)(F)F)c1)C(Cl)(Cl)Cl"
  normalized growth: 0.883
- Molecule: "Clc1ccc(CSc2nccn2-c2cc(Cl)ccc2Cl)cc1"
  normalized growth: 0.987
